Measured values drawn from ChEMBL document CHEMBL3045579 for this set.

- System: Lolium rigidum
- PROTOCOL_TEXT: Pre-emergence herbicidal activity against Lolium rigidum seeds assessed as seed germination at 0.1 mol/l at 25 degC after 72 hr by laboratory-based agar medium bioassay relative to control
- Assay type: functional
MEASURED_PARAMETER: Activity (%)
Numbers only, in %.

Worked set:
COMPOUND	UNIT_OF_MEASURE	Activity
CC1(C)O[C@]2(C)CC[C@@H]1[C@@H](O)C2 (racemic) [3-exo-hydroxy-1,8-cineole]	%	2.6
CC(=O)O[C@@H]1C[C@@]2(C(C)C)CC[C@@]1(C)O2 (racemic) [2-exo-acetoxy-1,4-cineole]	%	0
CC(C)[C@]12CC[C@@](C)(O1)[C@H](O)C2 (racemic) [2-Exo-hydroxy-1,4-cineole]	%	21.7
O=C(O)c1ccccc1	%	0
CC(=O)O	%	0

List the reported Activity of each compound below.
1. CC(=O)O[C@H]1C[C@@]2(C)CC[C@H]1C(C)(C)O2 (racemic) [3-Exo-acetoxy-1,8-cineole]
2. CC(C)[C@]12CC[C@@](C)(O1)[C@H](OC(=O)c1ccccc1)C2 (racemic) [2-exo-benzoxy-1,4-cineole]
3. CC12CCC(C(=O)C1)C(C)(C)O2 (racemic)
4. CCCC(=O)O
5. CC1(C)OC2(C)CC[C@H]1C[C@H]2O (single isomer, unassigned) [2-endo-hydroxy-1,8-cineole]
6. CC(C)(C)CC(=O)O[C@H]1C[C@@]2(C)CC[C@H]1C(C)(C)O2 (racemic) [3-exo-t-butylacetoxy-1,8-cineole]

Result ::
1. 34.1
2. 46.3
3. 33.3
4. 0
5. 51.5
6. 97.8

For every listed record, write down its Activity.
1. CCCCCC(=O)O [HEXANOATE]
2. CC(C)(C)CC(=O)O
3. CC1(C)O[C@]2(C)CC[C@@H]1[C@@H](OC(=O)c1ccccc1)C2 (racemic) [3-exo-benzoxy-1,8-cineole]

Result ::
1. 0
2. 0
3. 82.2
